# Test system: ACHN
# assay-remarks: NCI tumour cell line growth inhibition, 48 h
Activity calls are given as the source filed them. Cut-off read from the data, not from the text of the source: active = GI50 up to about 1.1 µM and inactive = higher.
readout-kind: GI50

Solved entries:
molecule	GI50
C#CCN(N=O)C(=O)ON1C(=O)CCC1=O	> 100 µM (inactive)
CC(=O)NC1=C(C)C(=O)c2c(nc3n2CCC3O)C1=O (stereo not given)	> 100 µM (inactive)
C=CCOC(=O)N1c2ccc(O)cc2[C@@]23O[C@@]24[C@@H]1C#C/C=C\C#C[C@]3(O)C(=O)C[C@@H]4C	28.2 µM (inactive)
O=C1CC(c2ccccc2)n2cccc21 (stereo not given)	> 100 µM (inactive)
CC(C)/C(Cl)=N/OC(NC(=O)Nc1ccc(Cl)c(Cl)c1)(C(F)(F)F)C(F)(F)F	12.2 µM (inactive)

input: Report GI50 for CCCC1(N)CC(OC)OC(C)C1O (stereo not given)
output: > 100 µM (inactive)

input: Report GI50 for C=CC(O)(CBr)CCC(Br)C(C)(C)Cl (stereo not given)
output: > 10 µM (inactive)

input: Report GI50 for CO[C@]12S[C@@H]3CCCC[C@@]31C(C)(C)C(=O)N2c1ccccc1
output: 37.4 µM (inactive)

input: Report GI50 for CC(=O)OCC1OC(n2c(-c3ccc(C)cc3)cc(-c3ccccc3)c(C#N)c2=S)C(OC(C)=O)C(OC(C)=O)C1OC(C)=O (stereo not given)
output: > 100 µM (inactive)

input: Report GI50 for NC12CCC(CC1=O)C2 (stereo not given)
output: > 100 µM (inactive)

input: Report GI50 for [O-][S+]1c2ccccc2SCSc2ccccc21
output: > 100 µM (inactive)

input: Report GI50 for CC(C)C1=CC23CCC4C(C)(C(=O)O)CCCC4(C)C2CC1C1C(=O)N(c2ccccc2)C(=O)C13 (stereo not given)
output: 28.1 µM (inactive)

* * *

# System: HOP-62
# assay-remarks: NCI tumour cell line growth inhibition, 48 h
Activity calls are given as the source filed them. Cut-off read from the data, not from the text of the source: active = GI50 up to about 1.1 µM and inactive = higher. Non-standard residues stand in square brackets, D forms with d. Residues, ends and D or L forms follow the SMILES beside them. *: point of attachment. Bn2Val = CC(C)[C@@H](C(=O)*)N(Cc1ccccc1)Cc1ccccc1; NMeV = CN[C@H](C(=O)O)C(C)C; X32 = COc1ccc(CN*)c(OC)c1; dNMeA = CN[C@H](C)C(=O)O
Lab note: assign the record to one of 1.0 = active, 0.0 = inactive

input: Called result for CC1=C(C#N)C(=O)CC(c2ccc(Cl)cc2)N(C)N1 (configuration not stated)
output: 0.0

input: Called result for COc1cc(S(=O)(=O)Nc2ccc(-c3csc(N4C(=O)CSC4c4ccccc4O)n3)cc2)ccc1Cl (configuration not stated)
output: 0.0

input: Called result for N=C(N)SCCc1ccccn1
output: 0.0

input: Called result for Cc1ccc(C2=[N+]([O-])c3ccccc3C2=O)cc1
output: 0.0

input: Called result for CS(=O)(=O)c1ccc(-c2cc(-c3ccc(S(C)(=O)=O)cc3)[n+](-c3cc(-c4ccc(S(C)(=O)=O)cc4)c([O-])c(-c4ccc(S(C)(=O)=O)cc4)c3)c(-c3ccc(S(C)(=O)=O)cc3)c2)cc1
output: 0.0

input: Called result for Cc1c(CNc2ccc(Cl)c(Cl)c2Cl)cnc2nc(N)nc(N)c12
output: 1.0

input: Called result for O=C(OCc1ccccc1)n1cccc1
output: 0.0

input: Called result for CCC(=O)N(c1ccccc1)C(C)CN1CCC(O)(c2ccccc2)CC1 (configuration not stated)
output: 0.0

input: Called result for COc1ccc(CNC(=O)[C@@H]2CCCN2C(=O)[C@@H](C)N(C)C(=O)[C@H](C(C)C)N(C)C(=O)[C@@H](NC(=O)[C@H](C(C)C)N(Cc2ccccc2)Cc2ccccc2)C(C)C)c(OC)c1 (Bn2Val-V[NMeV][dNMeA]P-X32)
output: 0.0

input: Called result for CC(=O)CC(=O)Nc1ccccc1C(F)(F)F
output: 0.0

input: Called result for CC(C)(C)c1cc2c(O)c(c1)C(c1ccccc1)c1cc(C(C)(C)C)cc(c1O)Cc1cc(C(C)(C)C)cc(c1O)C(c1ccccc1)c1cc(C(C)(C)C)cc(c1O)C2 (configuration not stated)
output: 0.0
